All values here come from patent US20260250257A1.

The following compounds are shown together with reported Synergistic activity (FIC value) ATCC19606 values.
System: ATCC19606 strain (Acinetobacter baumannii)
Experiment: Checkerboard antibacterial synergistic activity test with polymyxin E (FIC)
Assay type: cell-based
Design: key: FIC≤0.5 synergy; 0.5–1 additive; 1–2 indifferent; ≥2 antagonism
Details: combined with polymyxin E
Just the number, please.

Item under review: NC(N)=Nc1nc(-c2cccc3ncsc23)co1 . Reported Synergistic activity (FIC value) ATCC19606?
0.13

Field entry: NC(N)=Nc1nc(-c2ccccc2Oc2ccccc2I)cs1
0.38

Then CCc1oc(N=C2NCCCN2)nc1-c1cccc(C(C)C)c1 ?
0.13

What do we get for NC(N)=Nc1nc(-c2ccc(OCc3ccccc3)c3nc(O)ccc23)cs1 ?
0.27

NC(N)=Nc1nc(-c2cccc(-c3ccccc3)c2)cs1 , same question.
0.15

Would you mind doing N#Cc1cccc(-c2csc(N=C(N)N)n2)c1 as well?
0.52

Cool, now N#Cc1cc(Oc2ccccc2I)cc(-c2coc(N=C3NCCCN3)n2)c1
0.31

Same question for COc1ccc(Oc2cccc(-c3csc(N=C4NCCCN4)n3)c2)c(C)c1 please.
0.38

Further, for CC(=O)Nc1cc(-c2csc(N=C(N)N)n2)ccc1-c1ccccc1 ?
0.12

###

System: ATCC19606 strain (Acinetobacter baumannii)
Test: Checkerboard antibacterial synergistic activity test with polymyxin E (FIC)
Assay type: cell-based
Set-up: key: FIC≤0.5 synergy; 0.5–1 additive; 1–2 indifferent; ≥2 antagonism
Details: combined with polymyxin E
Entries and their Synergistic activity (FIC value) ATCC19606 values follow.

Record excerpt, results attached:
{"STRUCTURE AS SMILES": "Oc1c(Br)cc(-c2coc(N=C3NCCCN3)n2)cc1Br", "REPORTED MEASUREMENT": 0.51}
{"STRUCTURE AS SMILES": "NC(N)=Nc1nc(-c2cc3ccccc3o2)cs1", "REPORTED MEASUREMENT": 0.51}
{"STRUCTURE AS SMILES": "CSc1ccccc1-c1csc(N=C(N)N)n1", "REPORTED MEASUREMENT": 0.5}

Shift focus to the following entry.
Name the recorded Synergistic activity (FIC value) ATCC19606 for NC(N)=Nc1nc(-c2cccc3c(Cl)cccc23)c[nH]1 .
0.5

###

Tested on: ATCC25922 strain (Escherichia coli)
Experiment: Broth microdilution, antibacterial activity of the compound used alone
Assay type: cell-based
PROPERTY LABEL: Antibacterial activity of the compound of Formula I, ATCC25922

Some solved cases for reference:
{"STRUCTURE AS SMILES": "Oc1c(Cl)cc(-c2csc(N=C3NCCCN3)n2)cc1Cl", "REPORTED MEASUREMENT": "256 µg/mL"}
{"STRUCTURE AS SMILES": "NC(N)=Nc1nc(-c2ccccc2C(F)(F)F)c[se]1", "REPORTED MEASUREMENT": "256 µg/mL"}
{"STRUCTURE AS SMILES": "C[Si](C)(C)c1ccc(-c2csc(N=C(N)N)n2)cc1", "REPORTED MEASUREMENT": "256 µg/mL"}

# get_value(readout='Antibacterial activity of the compound of Formula I, ATCC25922', item= NC(N)=Nc1nc(-c2cccc(Oc3ccccc3Cl)c2)cs1 )
256 µg/mL

Repeat for the following compound: CSc1ccccc1-c1csc(N=C(N)N)n1
256 µg/mL

For NC(N)=Nc1nc(-c2cccc3ccsc23)c[nH]1 then?
256 µg/mL

###

System: ATCC19606 strain (Acinetobacter baumannii)
Assay: Checkerboard antibacterial synergistic activity test with polymyxin E (FIC)
Type: cell-based
Parameters: key: FIC≤0.5 synergy; 0.5–1 additive; 1–2 indifferent; ≥2 antagonism
Conditions: combined with polymyxin E
Listed below: Synergistic activity (FIC value) ATCC19606 values for each entry.
Respond numerically, and do not add a unit to the figure.

Value lookup for Synergistic activity (FIC value) ATCC19606; key = Cc1ccccc1Oc1cccc(-c2csc(N=C(N)N)n2)c1
0.04

Also CSc1cc2c(C)cccn2c1-c1csc(N=C(N)N)n1 , if possible.
0.38

Item: Ic1ccc(-c2csc(N=C3NCCCN3)n2)cc1
0.13

###

Tested on: ATCC19606 strain (Acinetobacter baumannii)
Assay: Checkerboard antibacterial synergistic activity test with polymyxin E (FIC)
Assay type: cell-based
Set-up: key: FIC≤0.5 synergy; 0.5–1 additive; 1–2 indifferent; ≥2 antagonism
Conditions: combined with polymyxin E
Procedure: Polymyxin E was diluted in sterile MH broth medium to concentrations of 16, 8, 4, 2, 1, 0.5, 0.25, 0.125, 0.0625, 0.031, and 0.015 μg/ml, and the drug to be tested was diluted to concentrations of 256, 128, 64, 32, 16, 8, and 4 μg/ml. […] Fractional Inhibitory Concentration (FIC) is calculated as follows: […]
Label criterion met when Synergistic activity (FIC value) ATCC19606 is at or above 0.3; otherwise label criterion not met.

Some solved entries appear below for comparison.
{"COMPOUND": "CS(=O)(=O)Oc1ccc(-c2coc(N=C(N)N)n2)cc1 [Compound I-28]", "CATEGORY": "criterion met"}
{"COMPOUND": "CCc1sc(N=C(N)N)nc1-c1ccccc1-c1ccncn1 [Compound I-77]", "CATEGORY": "criterion met"}
{"COMPOUND": "CSc1cc2cc(C)ccn2c1-c1coc(N=C2NCCCN2)n1 [Compound I-192]", "CATEGORY": "criterion met"}
{"COMPOUND": "NC(N)=Nc1nc(-c2cccc3cccnc23)co1 [Compound I-67]", "CATEGORY": "criterion met"}
{"COMPOUND": "Clc1cccc(-c2nc(N=C3NCCCN3)sc2Br)c1 [Compound I-185]", "CATEGORY": "criterion met"}
{"COMPOUND": "NC(N)=Nc1nc(-c2ccccc2-c2ccccc2)co1 [Compound I-73]", "CATEGORY": "criterion not met"}
{"COMPOUND": "NC(N)=Nc1nc(-c2cccc(C(=O)Nc3ccccc3)c2)cs1 [Compound I-110]", "CATEGORY": "criterion not met"}
{"COMPOUND": "Clc1cccc(-c2csc(N=C3NCCCN3)n2)c1Cl [Compound I-184]", "CATEGORY": "criterion not met"}

Check if Synergistic activity (FIC value) ATCC19606 >= 0.3 (inclusive). Item: CSc1cc2ccc(C)cn2c1-c1nc(N=C(N)N)sc1C [Compound I-126]
criterion not met

Next compound: Cc1oc(N=C(N)N)nc1-c1cccc(C#N)c1-c1cccs1 [Compound I-79]
criterion met

And what about the compound Ic1ccccc1-c1c[nH]c(N=C2NCCCN2)n1 [Compound I-179] ?
criterion met

Now the compound COc1ccc(-c2csc(N=C(N)N)n2)cc1 [Compound I-6]
criterion met

Queued: Oc1c(Cl)cc(-c2csc(N=C3NCCCN3)n2)cc1Cl [Compound I-188]
criterion not met

###

Tested on: ATCC19606 strain (Acinetobacter baumannii)
Assay: Checkerboard antibacterial synergistic activity test with polymyxin E (FIC)
Assay type: cell-based
Set-up: key: FIC≤0.5 synergy; 0.5–1 additive; 1–2 indifferent; ≥2 antagonism
Settings: combined with polymyxin E
PROPERTY LABEL: Synergistic activity (FIC value) ATCC19606
I only need the number, thanks.

{"STRUCTURE AS SMILES": "NC(N)=Nc1nc(-c2ccccc2Oc2ccc(Cl)cc2Cl)cs1", "TARGET SYSTEM": "ATCC19606 strain (Acinetobacter baumannii)", "REPORTED MEASUREMENT": 0.04}
{"STRUCTURE AS SMILES": "CSc1cc2cc(Cl)cc(Cl)n2c1-c1nc(N=C(N)N)sc1Cl", "TARGET SYSTEM": "ATCC19606 strain (Acinetobacter baumannii)", "REPORTED MEASUREMENT": 0.03}
{"STRUCTURE AS SMILES": "CC(C)c1ccc(-c2csc(N=C(N)N)n2)cc1", "TARGET SYSTEM": "ATCC19606 strain (Acinetobacter baumannii)", "REPORTED MEASUREMENT": 0.28}
{"STRUCTURE AS SMILES": "CC(=O)c1ccc(-c2csc(N=C(N)N)n2)cc1", "TARGET SYSTEM": "ATCC19606 strain (Acinetobacter baumannii)", "REPORTED MEASUREMENT": 0.5}

I am curious: what Synergistic activity (FIC value) ATCC19606 value has been reported for NC(N)=Nc1nc(-c2cccc(Oc3ccc(Cl)cc3Cl)c2)cs1 ?
0.38

Cool, now COc1ccc(Oc2ccccc2-c2csc(N=C(N)N)n2)c(C)c1
0.63

Do the same for Clc1sc(N=C2NCCCN2)nc1-c1cccc(Br)c1 please
0.5

// repeat for NC(N)=Nc1nc(-c2cccc(NS(=O)(=O)c3ccccc3)c2)cs1 and report
0.5

Same thing, different compound: NC(N)=Nc1nc(-c2cccc(NC(=O)NC3CC3)c2)cs1
0.25
